# system.tested: Cyclin-dependent kinase 1/cyclin B1 (Homo sapiens, UniProt P06493)
# Sequence (P06493 whole entry): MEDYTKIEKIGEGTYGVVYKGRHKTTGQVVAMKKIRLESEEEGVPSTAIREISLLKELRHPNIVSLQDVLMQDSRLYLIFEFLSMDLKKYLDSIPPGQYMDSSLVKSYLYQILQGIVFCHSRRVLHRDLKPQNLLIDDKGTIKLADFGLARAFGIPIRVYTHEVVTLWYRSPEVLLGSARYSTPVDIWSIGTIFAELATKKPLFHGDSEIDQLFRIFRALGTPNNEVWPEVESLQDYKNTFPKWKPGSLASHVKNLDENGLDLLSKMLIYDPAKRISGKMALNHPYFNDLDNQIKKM
# Sequence (P14635 whole entry, further chain): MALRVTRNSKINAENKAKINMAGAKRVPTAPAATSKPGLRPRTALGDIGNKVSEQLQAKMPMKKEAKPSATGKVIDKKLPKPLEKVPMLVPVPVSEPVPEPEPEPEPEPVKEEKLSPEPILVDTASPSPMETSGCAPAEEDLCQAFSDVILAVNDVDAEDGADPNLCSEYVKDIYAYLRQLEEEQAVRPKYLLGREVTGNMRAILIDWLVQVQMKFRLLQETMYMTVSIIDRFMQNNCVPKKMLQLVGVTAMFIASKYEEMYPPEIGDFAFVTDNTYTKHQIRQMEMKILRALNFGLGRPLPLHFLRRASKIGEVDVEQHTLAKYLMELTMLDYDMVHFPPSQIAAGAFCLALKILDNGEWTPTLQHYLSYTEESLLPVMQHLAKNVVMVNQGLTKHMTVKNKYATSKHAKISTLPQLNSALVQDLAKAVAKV
# test.details: Inhibition of CDK1/CyclinB (unknown origin)

| structure.string | IC50 |
| --- | --- |
| CC(C)c1n[nH]c2c(NCc3ccccc3O)ncnc12 | 440 nM |

---

# system.tested: CDK9/cyclin T1 (Homo sapiens)
# Sequence (O60563 whole entry, the tested form may be a part): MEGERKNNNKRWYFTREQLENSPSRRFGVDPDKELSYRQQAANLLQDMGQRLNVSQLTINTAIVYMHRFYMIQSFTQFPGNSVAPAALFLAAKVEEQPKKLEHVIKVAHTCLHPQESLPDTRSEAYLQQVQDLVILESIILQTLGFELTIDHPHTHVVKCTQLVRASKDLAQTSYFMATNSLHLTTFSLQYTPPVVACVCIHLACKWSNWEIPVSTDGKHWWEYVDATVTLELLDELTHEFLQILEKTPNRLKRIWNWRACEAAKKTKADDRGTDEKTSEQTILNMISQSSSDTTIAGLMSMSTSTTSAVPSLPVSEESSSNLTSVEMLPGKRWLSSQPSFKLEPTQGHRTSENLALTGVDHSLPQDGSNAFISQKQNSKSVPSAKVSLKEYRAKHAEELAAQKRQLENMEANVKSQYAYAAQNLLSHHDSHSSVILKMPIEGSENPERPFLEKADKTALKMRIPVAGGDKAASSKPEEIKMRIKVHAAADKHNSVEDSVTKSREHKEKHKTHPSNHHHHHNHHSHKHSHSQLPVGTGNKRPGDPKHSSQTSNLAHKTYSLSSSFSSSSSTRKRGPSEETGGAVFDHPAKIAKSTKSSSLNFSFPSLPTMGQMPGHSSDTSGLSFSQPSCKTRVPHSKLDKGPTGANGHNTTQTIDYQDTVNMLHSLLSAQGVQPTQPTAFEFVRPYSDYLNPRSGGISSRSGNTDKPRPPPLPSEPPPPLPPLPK
# Sequence (P50750 whole entry, the tested form may be a part): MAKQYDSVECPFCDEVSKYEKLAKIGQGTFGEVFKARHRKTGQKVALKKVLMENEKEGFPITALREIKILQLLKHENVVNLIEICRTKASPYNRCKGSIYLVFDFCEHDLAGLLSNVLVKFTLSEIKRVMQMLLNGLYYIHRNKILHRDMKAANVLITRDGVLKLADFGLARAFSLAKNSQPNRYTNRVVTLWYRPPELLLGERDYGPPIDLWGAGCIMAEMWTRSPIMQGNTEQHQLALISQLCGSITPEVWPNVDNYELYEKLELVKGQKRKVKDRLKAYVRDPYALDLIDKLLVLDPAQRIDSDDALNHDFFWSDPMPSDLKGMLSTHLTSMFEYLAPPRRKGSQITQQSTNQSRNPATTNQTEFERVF
# test.details: Inhibition of recombinant human full length N-terminal GST/His6-tagged CDK9 (M1 to F372 residues)/N-terminal His6-tagged CyclinT1 (M1 to K726 residues) expressed in Sf9 insect cells
pIC50: −log10 of the molar value.

| compound | pIC50 |
| --- | --- |
| CC(C)c1n[nH]c2c(NCc3ccccc3)nc(NC3CCCCC3N)nc12 (stereo unspecified) | < 6.00 |
